Attribute: IC50
Target: human VPS34 (Homo sapiens (Human), UniProt Q8NEB9)
Sequence (Q8NEB9 whole entry): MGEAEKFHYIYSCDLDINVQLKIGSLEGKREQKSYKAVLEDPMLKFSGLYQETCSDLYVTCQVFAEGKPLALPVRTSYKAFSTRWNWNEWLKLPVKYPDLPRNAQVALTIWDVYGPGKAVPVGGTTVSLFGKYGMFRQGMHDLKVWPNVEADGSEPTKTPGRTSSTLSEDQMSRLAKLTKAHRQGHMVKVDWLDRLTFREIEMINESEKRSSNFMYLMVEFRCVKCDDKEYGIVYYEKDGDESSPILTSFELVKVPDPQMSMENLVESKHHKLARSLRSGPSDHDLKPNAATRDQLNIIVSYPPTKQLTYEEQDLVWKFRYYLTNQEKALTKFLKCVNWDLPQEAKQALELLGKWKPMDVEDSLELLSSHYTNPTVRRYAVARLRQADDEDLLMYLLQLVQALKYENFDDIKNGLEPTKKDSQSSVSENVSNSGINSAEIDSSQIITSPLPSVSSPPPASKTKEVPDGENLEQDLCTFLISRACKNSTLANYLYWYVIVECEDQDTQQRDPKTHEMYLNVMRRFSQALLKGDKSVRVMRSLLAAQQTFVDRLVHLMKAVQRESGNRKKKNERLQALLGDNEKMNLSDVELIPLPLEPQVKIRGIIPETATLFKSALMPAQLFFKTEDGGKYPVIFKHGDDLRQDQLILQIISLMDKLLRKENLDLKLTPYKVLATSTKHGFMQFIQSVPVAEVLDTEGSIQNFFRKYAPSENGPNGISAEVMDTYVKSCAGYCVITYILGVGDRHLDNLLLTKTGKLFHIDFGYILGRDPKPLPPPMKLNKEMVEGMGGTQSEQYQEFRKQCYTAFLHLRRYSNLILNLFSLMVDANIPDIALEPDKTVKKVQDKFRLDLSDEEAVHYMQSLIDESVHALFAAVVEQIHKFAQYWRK
Experiment: Human VPS34 enzyme assay (Adapta TR-FRET ADP detection)
Format: biochemical
Details: IC50 range class

Known results for molecules:
COc1ncc(-c2ccnc(NC(C)=O)c2)cc1S(=O)(=O)Nc1ccc(F)cc1F	< 10 nM
CC(=O)Nc1cc(-c2cnc(C)c(N(C)S(=O)(=O)C3CC3)c2)ccn1	50 to 100 nM
CC(=O)Nc1cc(-c2cnc(C)c(N3CC(N(C)C)CS3(=O)=O)c2)ccn1 (single isomer, unassigned)	10 to 50 nM

**Q:** Find the recorded IC50 belonging to "CC(=O)Nc1cc(-c2cncc(N(CC3CC3)S(C)(=O)=O)c2)ccn1" and report it.
**A:** 50 to 100 nM

----------
Molecular target: human VPS34 (Homo sapiens (Human), UniProt Q8NEB9)
Experiment: Human VPS34 enzyme assay (Adapta TR-FRET ADP detection)
Assay type: biochemical
Details: IC50 range class
property label: IC50

Below are worked cases with known answers.
CC(=O)Nc1cc(-c2cnc(C)c(NS(=O)(=O)c3cccnc3)c2)ccn1 [Compound I-45]	< 10 nM
CC(=O)Nc1cc(-c2cnc(N)c(S(=O)(=O)N(C)C)c2)c(F)cn1 [Compound I-186]	10 to 50 nM
CC(=O)Nc1cc(-c2cnc(N)c(S(=O)(=O)Nc3ccc(Cl)cc3)c2)ccn1 [Compound I-207]	< 10 nM

**Q:** Consider the compound shown here: CC(=O)Nc1cc(-c2cnc3[nH]c(C)nc3c2)ccn1 [Compound I-66] What is its recorded IC50?
**A:** > 100 nM

**Q:** # IC50 lookup, item CC(=O)Nc1cc(-c2cnc(N)c(C(=O)N3CC[C@@H](F)C3)c2)ccn1 [Compound I-157]
**A:** 10 to 50 nM

**Q:** Fill in: IC50 of CC(=O)Nc1cc(-c2cnc(Cl)c(S(=O)(=O)N[C@H](CO)c3ccccc3)c2)ccn1 [Compound I-330] is ___
**A:** > 100 nM

**Q:** Could you share which IC50 value was measured for Cc1ncc(-c2ccnc(NC(=O)C3CC3(F)F)c2)cc1NS(=O)(=O)c1ccc(F)cc1F (single isomer, unassigned) [Compound I-267b] ?
**A:** 10 to 50 nM

**Q:** Requested read-out: IC50. Entry: Cc1nccc(Nc2cc(-c3cnc(C)c(C(=S)N4CCC4)c3)ccn2)n1 [Compound I-223]
**A:** 10 to 50 nM

----------
Tested on: NCI-H1975 cell line
Test: Cellular anti-proliferative assay of VPS34 inhibitors in combination with a second therapeutic agent (Cell Titer Glo, 72 hrs)
Format: cell-based, human
Conditions: in combination with Afatinib (Compound Y)
# reported Combination Index; entries follow
API doc: respond with a numeric literal and nothing else, no unit.

Take a look at these entries with their results.
CC(=O)Nc1cc(-c2cnc(C)c(NS(=O)(=O)N(C)C)c2)ccn1 [Compound I-32]	0.66
CC(=O)Nc1cc(-c2cnc(C)c(NS(=O)(=O)c3ccc(F)cc3F)c2)ccn1 [Compound I-41]	0.58
CC(=O)Nc1cc(-c2cnc(C)c(NS(=O)(=O)c3ccc(Cl)cc3F)c2)ccn1 [Compound I-94]	0.54
Cc1c(-c2ccnc(NC(=O)C3CC3)c2)cnc(Cl)c1NS(=O)(=O)c1ccc(F)cc1F [Compound I-308]	0.84
Cc1nccc(Nc2cc(-c3cnc(Cl)c(NS(=O)(=O)c4ccc(F)cc4F)c3C)ccn2)n1 [Compound I-299]	0.68

In the following, a different molecule is considered.
**Q:** Can you look up the measured Combination Index of Cc1ncc(-c2ccnc(Nc3ccncn3)c2)cc1NS(=O)(=O)N(C)C [Compound I-217] for me?
**A:** 0.52

----------
Molecular target: human VPS34 (Homo sapiens (Human))
Test: Human VPS34 enzyme assay (Adapta TR-FRET ADP detection)
Format: biochemical
Conditions: IC50 range class
pIC50: −log10 of the molar value.
property label: pIC50

Cc1ncc(-c2ccnc(NC(=O)OCC3(C)COC3)c2)cc1NS(=O)(=O)c1ccc(F)cc1F [Compound I-324]	7.30 to 8.00

**Q:** Field request: pIC50 | item: CC(=O)Nc1cc(-c2cnc(C)c(NS(=O)(=O)c3cccc(Cl)c3Cl)c2)ccn1 [Compound I-342]
**A:** > 8.00

**Q:** Value lookup for pIC50; key = CC(=O)Nc1cc(-c2ccc(S(=O)(=O)Nc3cc(-c4ccnc(NC(C)=O)c4)cnc3C)c(F)c2)ccn1 [Compound I-86]
**A:** > 8.00

**Q:** For CC(=O)Nc1cc(-c2cnc3cc[nH]c3c2)ccn1 [Compound I-17] , what is its reported pIC50?
**A:** 7.00 to 7.30

----------
pIC50 values for the compounds below.
Molecular target: human VPS34 (Homo sapiens (Human))
Test: Human VPS34 enzyme assay (Adapta TR-FRET ADP detection)
Assay type: biochemical
Conditions: IC50 range class
pIC50: −log10 of the molar value.

Cc1c(-c2ccnc(NC(=O)C3CC3)c2)cnc(Cl)c1NS(=O)(=O)c1ccc(F)cc1F	> 8.00
Cc1ncc(-c2ccnc(Nc3nc4ccccc4s3)c2)cc1NS(=O)(=O)c1ccc(F)cc1F	7.30 to 8.00
Cc1c(-c2ccnc(Nc3ccnc(C4CC4)n3)c2)cnc(Cl)c1N	7.30 to 8.00
COC(=O)Nc1cc(-c2cnc(N)c(C(=O)N(C)C)c2)ccn1	> 8.00
CC(=O)Nc1cc(-c2cnc(Cl)c(NS(=O)(=O)c3cn(C)nc3C(F)(F)F)c2C)ccn1	7.30 to 8.00
CC(=O)Nc1cc(-c2cnc(Cl)c(C(=O)N(C)C)c2)ccn1	7.00 to 7.30
Cc1ncc(-c2ccnc(Nc3cnccn3)c2)cc1NS(=O)(=O)c1ccc(F)cc1F	> 8.00

// next item, pIC50 requested
**Q:** Using the record for "COc1cccc(S(=O)(=O)Nc2cc(-c3ccnc(NC(C)=O)c3)cnc2C)c1" , report its pIC50.
**A:** > 8.00

----------
Molecular target: human VPS34 (Homo sapiens (Human), UniProt Q8NEB9)
Test: Human VPS34 enzyme assay (Adapta TR-FRET ADP detection)
Assay type: biochemical
Parameters: dose or concentration left out as unconfirmed
Measured Percent Inhibition values are reported for all entries that follow.
Write it as a number; the unit % goes unstated.

CC(=O)Nc1cc(-c2cnc(Cl)c(NS(=O)(=O)c3cn(C)nc3C(F)(F)F)c2C)ccn1	99

Next:
**Q:** Which Percent Inhibition value belongs to Cc1ncc(-c2ccnc(NC(=O)C3CC3(F)F)c2)cc1NS(=O)(=O)c1ccc(F)cc1F (single isomer, unassigned) [Compound I-267b] ?
**A:** 94

----------
Target: UniProt Q8NEB9
Assay: Human VPS34 enzyme assay (Adapta TR-FRET ADP detection)
Format: biochemical
Settings: IC50 range class
# IC50 per record follows

These recorded examples may help you get a feel for the data.
CC(=O)Nc1cc(-c2ccnc(Nc3ccnc(C4CC4)n3)c2)cn2nccc12 [Compound I-371]	< 10 nM
Cc1nccc(Nc2cc(-c3cnc(C)c(C(=O)N4CCCCC4)c3)ccn2)n1 [Compound I-262]	10 to 50 nM

**Q:** For CC(=O)Nc1cc(-c2cnc(Cl)c(NS(=O)(=O)c3ccc(F)cc3Cl)c2C)ccn1 [Compound I-290] , what is its reported IC50?
**A:** 10 to 50 nM

**Q:** Which value of IC50 has been reported for CC(=O)Nc1cc(-c2cnc(Cl)c(NS(=O)(=O)c3cc(F)ccc3F)c2C)ccn1 [Compound I-227] in the records?
**A:** 10 to 50 nM

**Q:** Bench note: what IC50 did CC(=O)Nc1cc(-c2cnc(N)c(C(=O)N3CCOCC3)c2)ccn1 [Compound I-152] show?
**A:** 10 to 50 nM

**Q:** For the compound shown here, Cc1nccc(Nc2cc(-c3cc(N)c4ccnn4c3)ccn2)n1 [Compound I-480] , give the reported IC50.
**A:** 50 to 100 nM

**Q:** Quick check: IC50 of CC(=O)Nc1cc(-c2cnc(Cl)c(NS(=O)(=O)c3ccc(Cl)cc3F)c2C)ccn1 [Compound I-399] ?
**A:** 10 to 50 nM

**Q:** Consider the compound CC(=O)Nc1cc(-c2cnc(Cl)c(NS(=O)(=O)c3cccc4ncccc34)c2C)ccn1 [Compound I-437] and give its measured IC50.
**A:** 10 to 50 nM

**Q:** Dear colleague, I am looking for the recorded IC50 of the following compound: CC(=O)Nc1cc(-c2cnc(N)c(C(=O)NC34CC(C3)C4)c2)ccn1 [Compound I-187]
**A:** < 10 nM

**Q:** Consider the compound shown here: Cc1ccc2ccc(Nc3cc(-c4cnc(C)c(NS(=O)(=O)c5ccc(F)cc5F)c4)ccn3)nc2n1 [Compound I-235] What is its recorded IC50?
**A:** 10 to 50 nM

**Q:** Given CC(=O)Nc1cc(-c2cnc(C)c(N(C)S(=O)(=O)c3ccccc3)c2)ccn1 [Compound I-46] , state its recorded IC50.
**A:** 10 to 50 nM

**Q:** Look up IC50: CC(=O)Nc1cc(-c2cnc(N)c(S(=O)(=O)Cc3ccc4ccccc4c3)c2)ccn1 [Compound I-3]
**A:** 50 to 100 nM

**Q:** Recorded IC50 of CC(=O)Nc1cc(-c2cnc(C)c(NS(=O)(=O)c3ccc(OC(F)(F)F)cc3Cl)c2)ccn1 [Compound I-113] , please.
**A:** < 10 nM

**Q:** Suppose we examine the compound CC(=O)Nc1cc(-c2cnc(C)c(NS(=O)(=O)N3CCCC3)c2)ccn1 [Compound I-274] ; what IC50 value has been reported?
**A:** 10 to 50 nM

**Q:** # IC50 lookup, item COc1ncc(-c2ccnc(Nc3ccnc(C)n3)c2)cc1S(=O)(=O)NC1CCC1 [Compound I-224]
**A:** 10 to 50 nM

**Q:** # query: IC50 of entry Cc1nccc(Nc2cc(-c3cnc(C)c(OC4CCCC4)c3)ccn2)n1 [Compound I-471]
**A:** 10 to 50 nM

**Q:** Reported IC50 for Cc1ncc(-c2ccnc(N)c2)cc1NS(=O)(=O)N(C)C [Compound I-281] : what is it?
**A:** > 100 nM
